target: NR1/NR2B (Homo sapiens (Human), UniProt Q05586+Q13224); assay: Cell assay: FDSS Ca2+ influx inhibition in HEK293 cells expressing NR1/NR2B; details: Binned Activity, HEK293 cells expressing NR1/NR2B, Ca2+ influx; binned NR2B NAM IC50
Sequence (Q13224 27-1484, other chains not shown): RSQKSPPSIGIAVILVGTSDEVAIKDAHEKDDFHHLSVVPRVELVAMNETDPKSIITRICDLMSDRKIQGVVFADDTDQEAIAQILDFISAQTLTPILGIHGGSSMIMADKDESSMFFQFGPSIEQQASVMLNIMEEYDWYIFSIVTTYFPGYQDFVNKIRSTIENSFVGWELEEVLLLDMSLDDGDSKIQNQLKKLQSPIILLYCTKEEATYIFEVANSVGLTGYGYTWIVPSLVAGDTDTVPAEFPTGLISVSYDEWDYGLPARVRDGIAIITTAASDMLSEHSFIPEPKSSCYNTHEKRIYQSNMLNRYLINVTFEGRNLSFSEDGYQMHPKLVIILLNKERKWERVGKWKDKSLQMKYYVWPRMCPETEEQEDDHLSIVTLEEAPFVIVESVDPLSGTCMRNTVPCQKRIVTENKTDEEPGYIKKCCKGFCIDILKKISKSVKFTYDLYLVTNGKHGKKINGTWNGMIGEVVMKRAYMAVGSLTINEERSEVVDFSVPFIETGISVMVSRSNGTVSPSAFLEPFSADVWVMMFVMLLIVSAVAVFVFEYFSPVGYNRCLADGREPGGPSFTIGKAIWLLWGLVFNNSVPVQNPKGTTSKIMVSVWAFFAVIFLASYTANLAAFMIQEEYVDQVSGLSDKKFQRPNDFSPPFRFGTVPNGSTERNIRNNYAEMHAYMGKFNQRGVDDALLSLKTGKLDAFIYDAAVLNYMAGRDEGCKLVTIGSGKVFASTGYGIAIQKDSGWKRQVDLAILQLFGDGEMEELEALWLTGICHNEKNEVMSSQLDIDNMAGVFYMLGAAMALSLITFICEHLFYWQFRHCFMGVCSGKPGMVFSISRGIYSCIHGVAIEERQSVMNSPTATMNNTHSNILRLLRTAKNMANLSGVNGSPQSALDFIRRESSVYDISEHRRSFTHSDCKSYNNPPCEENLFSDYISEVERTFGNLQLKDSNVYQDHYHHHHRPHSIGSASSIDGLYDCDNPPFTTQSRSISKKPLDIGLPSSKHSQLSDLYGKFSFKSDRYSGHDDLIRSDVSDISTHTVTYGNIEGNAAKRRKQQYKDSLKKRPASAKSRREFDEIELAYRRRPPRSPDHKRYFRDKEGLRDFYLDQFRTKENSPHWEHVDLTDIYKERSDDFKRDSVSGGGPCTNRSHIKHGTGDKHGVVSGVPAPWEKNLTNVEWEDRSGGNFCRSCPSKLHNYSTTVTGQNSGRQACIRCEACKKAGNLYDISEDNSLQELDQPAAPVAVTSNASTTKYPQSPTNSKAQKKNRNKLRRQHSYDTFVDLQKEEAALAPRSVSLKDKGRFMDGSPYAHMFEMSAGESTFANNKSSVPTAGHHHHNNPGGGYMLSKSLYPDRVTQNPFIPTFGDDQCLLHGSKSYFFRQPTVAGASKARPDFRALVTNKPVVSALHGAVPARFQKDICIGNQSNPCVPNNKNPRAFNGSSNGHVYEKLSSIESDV
parameter: IC50

# compound, IC50
rows = [
    ("CC(C(=O)c1ccc(O)cc1)N1C[C@@H]2C[C@@](O)(c3ccc(C(C)(C)C)cc3)C[C@@H]2C1 (mixture of isomers)", "> 10 µM"),
    ("O=C(CN1C[C@@H]2C[C@@](O)(c3ccccc3)C[C@@H]2C1)c1cccc(F)c1", "> 10 µM"),
    ("Cc1cccc(N2C[C@@H]3C[C@@](O)(c4ccccc4)C[C@@H]3C2)n1", "> 10 µM"),
]

## Input I have this compound here, Cc1cccc(-c2cccc(C(=O)CN3C[C@@H]4C[C@@](O)(Cc5ccccc5)C[C@@H]4C3)c2)c1 , and I need its recorded IC50.
## Output > 10 µM

## Input Please report the recorded IC50 for COc1cccc([C@]2(O)C[C@H]3CN(CC(=O)c4cccc(F)c4)C[C@H]3C2)c1 .
## Output > 10 µM

## Input IC50 lookup needed for Cc1ccccc1[C@]1(O)C[C@H]2CN(c3ccccn3)C[C@H]2C1 , thanks.
## Output > 10 µM

## Input Data request, read-out IC50, for O[C@@]1(c2ccc(F)cc2)C[C@H]2CN(c3ccccn3)C[C@H]2C1
## Output > 10 µM

## Input Please give the measured IC50 for this compound: CC(C(=O)c1ccc(O)cc1)N1C[C@@H]2C[C@@](O)(c3ccccc3)C[C@@H]2C1 (mixture of isomers)
## Output > 10 µM

## Input Could you share which IC50 value was measured for COc1ccc(C(=O)CN2C[C@@H]3C[C@@](O)(Cc4ccccc4)C[C@@H]3C2)cn1 ?
## Output > 10 µM

## Input Fill in: IC50 of COc1cccc([C@]2(O)C[C@H]3CN(C(C)C(O)c4ccc(O)cc4)C[C@H]3C2)c1 (mixture of isomers) is ___
## Output > 10 µM

## Input Any idea what IC50 was measured for COC(=O)c1ccc(NC(=O)N2C[C@@H]3C[C@@](O)(c4ccccc4C)C[C@@H]3C2)cc1 ?
## Output > 10 µM

## Input Look up IC50 for this compound: O=C(Nc1cccc(Cl)c1)N1C[C@@H]2C[C@@](O)(c3ccccc3)C[C@@H]2C1
## Output > 10 µM

## Input Sample O=C(CN1C[C@@H]2C[C@@](O)(Cc3ccccc3)C[C@@H]2C1)c1ccc(-c2ccccn2)cc1 — what was its IC50?
## Output > 10 µM

## Input For O=C(CN1C[C@@H]2C[C@@](O)(Cc3ccc(C(F)(F)F)cc3)C[C@@H]2C1)c1ccc(O)cn1 , what is its reported IC50?
## Output 0.1 to 1 µM

## Input What measured IC50 goes with Oc1ccc(C(O)CN2C[C@H]3C[C@@H](Cc4ccccc4)C[C@H]3C2)cc1 (mixture of isomers) ?
## Output < 0.1 µM

----------
Overview of reported IC50 across a group of compounds:
target: NR1/NR2B (Homo sapiens (Human), UniProt Q05586+Q13224); experiment: Cell assay: FDSS Ca2+ influx inhibition in HEK293 cells expressing NR1/NR2B; conditions: NR2B NAM IC50, HEK293 cells expressing NR1/NR2B, Ca2+ influx

# compound, IC50
measured = [
    ("OC(CN1C[C@@H]2C[C@@](O)(c3ccc(F)cc3)C[C@@H]2C1)c1cccc(C(F)(F)F)c1 (mixture of isomers) [Example 75]", "≥ 10 µM"),
    ("Oc1ccc(C(O)CN2C[C@@H]3C[C@@](O)(Cc4ccc(F)cc4)C[C@@H]3C2)nc1 (mixture of isomers) [Example 168]", "0.0178 µM"),
    ("Oc1ccc(C(O)CN2C[C@@H]3C[C@](F)(Cc4ccccc4)C[C@@H]3C2)cc1 (mixture of isomers) [Example 311]", "0.448 µM"),
    ("Oc1ccc(C(O)CN2C[C@H]3C[C@H](Cc4ccccc4)C[C@H]3C2)cc1 (mixture of isomers) [Example 306]", "0.0117 µM"),
    ("[2H]C(O)(CN1C[C@@H]2C[C@@](O)(Cc3ccccc3)C[C@@H]2C1)c1ccc(O)cc1 (mixture of isomers) [Example 281]", "0.0174 µM"),
    ("Oc1ccc(C(O)CN2C[C@H]3CN(Cc4ccccc4)C[C@H]3C2)nc1 (mixture of isomers) [Example 329]", "0.38 µM"),
    ("Oc1c(F)cc(C(O)CN2C[C@@H]3C[C@@](O)(Cc4ccccc4)C[C@@H]3C2)cc1F (mixture of isomers) [Example 160]", "0.0981 µM"),
    ("CC(C(=O)c1ccc(O)cc1)N1C[C@H]2CC(Cc3ccccc3)C[C@H]2C1 (mixture of isomers) [Example 296]", "0.125 µM"),
]

## Input Recorded IC50 of CC(C(O)c1ccc(O)cc1)N1C[C@@H]2C[C@](F)(Cc3ccccc3)C[C@@H]2C1 (mixture of isomers) [Example 318] , please.
## Output 12.8 µM

## Input # query: IC50 of entry Oc1ccc(C(O)CN2C[C@@H]3C[C@@](O)(Cc4cccs4)C[C@@H]3C2)cc1F (mixture of isomers) [Example 222]
## Output 0.0193 µM

----------
Overview of reported IC50 across a group of molecules:
molecular target: NR1/NR2B (Homo sapiens (Human), UniProt Q05586+Q13224); assay: Cell assay: FDSS Ca2+ influx inhibition in HEK293 cells expressing NR1/NR2B; conditions: NR2B NAM IC50, HEK293 cells expressing NR1/NR2B, Ca2+ influx

Worked examples, 4 molecules total:
# molecule, IC50
rows = [
    ("Oc1ccc(C(O)CN2C[C@H]3CC(Cc4ccccc4)C[C@H]3C2)cc1 (mixture of isomers) [Example 300]", "0.0139 µM"),
    ("Oc1ccc(C(O)CN2C[C@@H]3C[C@@](O)(Cc4ccccc4)C[C@@H]3C2)cn1 (mixture of isomers) [Example 181]", "≥ 10 µM"),
    ("Cc1cc(C)cc(C[C@]2(O)C[C@H]3CN(CC(O)c4ccc(O)cc4)C[C@H]3C2)c1 (mixture of isomers) [Example 213]", "0.566 µM"),
    ("CC(C(O)c1ccc(O)cc1)N1C[C@@H]2C[C@@](O)(CCc3ccccc3)C[C@@H]2C1 (mixture of isomers) [Example 320]", "2.05 µM"),
]

## Input Reported IC50, molecule O=C(Nc1cccc(Cl)c1)N1C[C@@H]2C[C@@](O)(c3ccc(F)cc3)C[C@@H]2C1 [Example 39] : ____
## Output ≥ 10 µM

## Input Need IC50 of CC(C(O)c1ccc(O)cc1)N1C[C@@H]2C[C@@](O)(c3ccc(C(C)(C)C)cc3)C[C@@H]2C1 (mixture of isomers) [Example 96] , thanks.
## Output 10.5 µM

## Input Field request: IC50 | item: COc1ccc(C[C@]2(O)C[C@H]3CN(CC(O)c4ccc(O)cn4)C[C@H]3C2)cc1 (mixture of isomers) [Example 199]
## Output 0.0363 µM

----------
biological target: NR1/NR2B (Homo sapiens (Human), UniProt Q05586+Q13224); test: Cell assay: FDSS Ca2+ influx inhibition in HEK293 cells expressing NR1/NR2B; conditions: Binned Activity, HEK293 cells expressing NR1/NR2B, Ca2+ influx; binned NR2B NAM IC50
pIC50: −log10 of the molar value.
parameter: pIC50

# chemical-string, measured-target, reported-value
measured = [
    ("CO[C@@]1(Cc2ccccc2)C[C@H]2CN(CC(=O)c3ccc(O)c(F)c3)C[C@H]2C1", "NR1/NR2B (Homo sapiens (Human), UniProt Q05586+Q13224)", "6.00 to 7.00"),
]

## Input Reported pIC50 for NR1/NR2B (Homo sapiens (Human), UniProt Q05586+Q13224), given N#Cc1cccc(NC(=O)N2C[C@H]3C[C@@H](c4ccccc4)C[C@H]3C2)c1 ?
## Output < 5.00

## Input Field: pIC50 (NR1/NR2B (Homo sapiens (Human), UniProt Q05586+Q13224)). Entry: O=C(CN1C[C@@H]2C[C@@](O)(CC3CCCCC3)C[C@@H]2C1)c1ccc(O)cc1
## Output 6.00 to 7.00

## Input Lab note: need pIC50 for O=C(CN1C[C@H]2C[C@@H](CCc3ccccc3)C[C@H]2C1)c1ccc(O)cc1 on NR1/NR2B (Homo sapiens (Human), UniProt Q05586+Q13224), anyone have it?
## Output 6.00 to 7.00

----------
IC50: recorded values
biological target: NR1/NR2B (Homo sapiens (Human), UniProt Q05586+Q13224); test: Cell assay: FDSS Ca2+ influx inhibition in HEK293 cells expressing NR1/NR2B; settings: Binned Activity, HEK293 cells expressing NR1/NR2B, Ca2+ influx; binned NR2B NAM IC50;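 also: Fluo-8 Ca2+ signal read on Hamamatsu FDSS 6000 after glutamate, glycine and Ca2+ challenge following 10 min compound preincubation, end/baseline fluorescence ratio compared with MK801 control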

Please review the following examples before continuing.
# compound, reported-value
data = [
    ("O=C(CN1C[C@@H]2C[C@@](O)(c3cccnc3F)C[C@@H]2C1)c1ccc(O)cn1", "> 10 µM"),
    ("COc1ccc(C)cc1NC(=O)N1C[C@@H]2C[C@@](O)(Cc3ccccc3)C[C@@H]2C1", "> 10 µM"),
    ("O=C(Nc1ccccc1C(F)(F)F)N1C[C@@H]2C[C@@](O)(Cc3ccccc3)C[C@@H]2C1", "> 10 µM"),
    ("CC(C)(C)c1ccc([C@]2(O)C[C@H]3CN(C(=O)Nc4cccc(C(F)(F)F)c4)C[C@H]3C2)cc1", "> 10 µM"),
    ("Oc1ccc(C(O)CN2C[C@@H]3C[C@@](O)(Cc4cccs4)C[C@@H]3C2)cc1F (mixture of isomers)", "< 0.1 µM"),
    ("O=C1CCc2cc(C(=O)CN3C[C@@H]4C[C@@](O)(Cc5ccccc5)C[C@@H]4C3)ccc2N1", "0.1 to 1 µM"),
]

## Input Give its IC50 value. Item: COc1ccc(C)cc1NC(=O)N1C[C@@H]2C[C@@](O)(c3ccc(F)cc3)C[C@@H]2C1
## Output > 10 µM
